Recorded values, source ChEMBL document CHEMBL1126605.

- System: TE-671
- method description: Cytotoxicity against human central nervous system carcinoma TE671 cell line
- Assay type: functional
- assay conditions: read-out: ED50 (the source's name)
pEC50: −log10 of the molar value.
Could you label it true (1) if measured pEC50 is 8 or higher, and false (0) otherwise?

# smiles str, class assignment
records = [
    ("COc1cc2c(c(OC)c1OC)-c1ccc(SC)c(=O)cc1[C@@H](COC(C)=O)C2", "false (0)"),
    ("CCCC(=O)OC[C@H]1Cc2cc(OC)c(OC)c(OC)c2-c2ccc(SC)c(=O)cc21", "false (0)"),
    ("COc1cc2c(c(OC)c1OC)-c1ccc(SC)c(=O)cc1[C@@H](COC(=O)c1ccc(Br)cc1)C2", "false (0)"),
    ("C=C1Cc2cc(OC)c(OC)c(OC)c2-c2ccc(SC)c(=O)cc21", "true (1)"),
    ("COc1cc2c(c(OC)c1OC)-c1ccc(SC)c(=O)cc1[C@@H](COC(=O)c1cccc([N+](=O)[O-])c1)C2", "false (0)"),
    ("COc1cc2c(c(OC)c1OC)-c1ccc(SC)c(=O)cc1[C@@H](COC(=O)c1ccccc1F)C2", "false (0)"),
    ("CCC(=O)OC[C@H]1Cc2cc(OC)c(OC)c(OC)c2-c2ccc(SC)c(=O)cc21", "true (1)"),
    ("COc1cc2c(c(OC)c1OC)-c1ccc(SC)c(=O)cc1[C@@H](COC(=O)c1cccc(F)c1)C2", "true (1)"),
    ("COc1cc2c(c(OC)c1OC)-c1ccc(OC)c(=O)cc1[C@@H](NC(C)=O)CC2", "true (1)"),
    ("CC(C)n1cnc2c(Nc3ccc(Br)cc3)nc(N3CCC[C@@H]3CO)nc21", "false (0)"),
]

====

- Tested on: KB
- method description: Cytotoxicity against human solid tumor nasopharyngeal carcinoma KB cell line
- Assay type: functional
- assay conditions: read-out: ED50 (the source's name)

# smiles str, experimental target, EC50
records = [
    ("COc1cc2c(c(OC)c1OC)-c1ccc(SC)c(=O)cc1[C@@H](COC(=O)c1ccc([N+](=O)[O-])cc1)C2", "KB", "13 nM"),
    ("CCOC(=O)OC[C@H]1Cc2cc(OC)c(OC)c(OC)c2-c2ccc(SC)c(=O)cc21", "KB", "11 nM"),
    ("COc1cc2c(c(OC)c1OC)-c1ccc(SC)c(=O)cc1[C@@H](COC(=O)c1cccc([N+](=O)[O-])c1)C2", "KB", "1050 nM"),
    ("CC(C)n1cnc2c(Nc3ccc(Br)cc3)nc(N3CCC[C@@H]3CO)nc21", "KB", "144 nM"),
]

====

- experimental target: Tubulin (Bos taurus) (UniProt Q6B856+Q862L2+Q862F3)
- assay conditions: at 5 µM
- Description: Percentage inhibition of [3H]colchicine binding site on tubulin at 5 uM
Reported inhibition by item:

# smiles str, unit, inhibition
data = [
    ("COc1cc2c(c(OC)c1OC)-c1ccc(SC)c(=O)cc1[C@@H](COC(=O)c1ccc([N+](=O)[O-])cc1)C2", "%", 78),
    ("CCC(=O)OC[C@H]1Cc2cc(OC)c(OC)c(OC)c2-c2ccc(SC)c(=O)cc21", "%", 83),
    ("COc1cc2c(c(OC)c1OC)-c1ccc(SC)c(=O)cc1[C@@H](COC(=O)c1ccccc1F)C2", "%", 91),
    ("CCOC(=O)OC[C@H]1Cc2cc(OC)c(OC)c(OC)c2-c2ccc(SC)c(=O)cc21", "%", 60),
    ("COc1cc2c(c(OC)c1OC)-c1ccc(SC)c(=O)cc1[C@@H](COC(=O)c1ccc(Br)cc1)C2", "%", 2),
    ("COc1cc2c(c(OC)c1OC)-c1ccc(SC)c(=O)cc1[C@@H](COC(=O)c1cccc([N+](=O)[O-])c1)C2", "%", 0),
    ("COc1cc2c(c(OC)c1OC)-c1ccc(SC)c(=O)cc1[C@@H](COC(=O)c1cccc(F)c1)C2", "%", 0),
    ("CCCC(=O)OC[C@H]1Cc2cc(OC)c(OC)c(OC)c2-c2ccc(SC)c(=O)cc21", "%", 46),
    ("COc1cc2c(c(OC)c1OC)-c1ccc(SC)c(=O)cc1[C@@H](COC(C)=O)C2", "%", 56),
    ("COc1cc2c(c(OC)c1OC)-c1ccc(SC)c(=O)cc1[C@@H](COC(=O)c1cccc(C#N)c1)C2", "%", 0),
    ("C=C1Cc2cc(OC)c(OC)c(OC)c2-c2ccc(SC)c(=O)cc21", "%", 91),
    ("COc1ccc(C(=O)OC[C@H]2Cc3cc(OC)c(OC)c(OC)c3-c3ccc(SC)c(=O)cc32)cc1", "%", 0),
    ("CC(C)n1cnc2c(Nc3ccc(Br)cc3)nc(N3CCC[C@@H]3CO)nc21", "%", 53),
    ("COc1cc2c(c(OC)c1OC)-c1ccc(SC)c(=O)cc1[C@@H](COC(=O)c1ccc(F)cc1)C2", "%", 0),
]
